# maps each entry to its self-cleavage
B1: CPEB3 Ribozyme (parent)
chain: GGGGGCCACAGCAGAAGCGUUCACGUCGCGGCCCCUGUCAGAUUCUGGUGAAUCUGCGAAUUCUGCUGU

- Variants of: B1
- assay-info: self-cleavage, relative activity (ratio to wild type); higher = more cleavage; co-transcriptional
// print number alone

input: Answer with reported self-cleavage of G19U G37U
output: 0.199

input: Answer with reported self-cleavage of G50A C63G
output: 0.859

input: Answer with reported self-cleavage of G14U U44C
output: 0.325
